Each entry below carries its reported thermal shift delta Tm.
System: LOC_OS05G07850-cb002;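 note: purified Escherichia coli-expressed rice kinase domain construct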
Test: thermal shift delta Tm vs DMSO control; higher = stronger stabilization (binding)
Settings: 12.5 µM; protein concentration 2 µM
ENDPOINT: thermal shift delta Tm (°C)

>>> df
                            molecule_smiles  assay_result
0  Oc1c(F)cc(-c2cnccc2-c2ccc(N3CCOCC3)cc2)cc1F          3.05
1  O=C(c1ccc(Nc2nccc(-c3cc4ccccc4s3)n2)cc1)N1CCC(N2CCCC2)CC1          15.2
2  CC(C)(O)CNc1ncc(-c2ccnc(Nc3ccnc(Cl)c3)n2)c(CC2CC2)n1          7.44
3  Cc1nc(Nc2n[nH]c3c2CN(C(=O)N[C@H](CN(C)C)c2ccccc2)C3(C)C)c2sccc2n1          1.45
4  N#Cc1cccc(-c2c[nH]c3ncnc(N4CCOCC4)c23)c1          12.3
